Data origin, for the record: patent US11292787B2

target: K-Ras protein (Homo sapiens, UniProt P01116, G12V); construct: in SW620 cells, compound I-a-1 can effectively enhance the degradation of endogenous K-RAS-G12V proteins; endogenous in cells; host or cells: SW-620; experiment: K-Ras protein degradation rate by Western blot in SW-620 cells; assay type: cell-based; details: 10 μM, SW-620 cells, 24 h, Western blot, relative to DMSO control; read-out: Degradation rate of compounds at 10 μM on Ras protein (%)
Sequence (P01116 1-188 isoform P01116-2 G12V): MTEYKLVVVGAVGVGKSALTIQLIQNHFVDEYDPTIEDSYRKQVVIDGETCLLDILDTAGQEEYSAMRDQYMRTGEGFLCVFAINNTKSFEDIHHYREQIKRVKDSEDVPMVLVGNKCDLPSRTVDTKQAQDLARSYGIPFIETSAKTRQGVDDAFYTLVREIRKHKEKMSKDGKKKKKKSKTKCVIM
Some compounds, each annotated with its measured percent K-Ras protein degradation (single point) at 10 µM.
measurementKind: percent K-Ras protein degradation (single point) at 10 µM (%)

> print(dat)
                                  smilesrepr  quantityunit  testvalue
 1  O=C(NCc1cccc([N+](=O)[O-])c1)c1c[nH]c(-c2n[nH]c3ncccc23)c1             %         60
 2  O=C(NCc1ccc(Br)cc1)c1c[nH]c(-c2n[nH]c3ncccc23)c1             %         40
 3  Cc1ccccc1CNC(=O)c1c[nH]c(-c2n[nH]c3ncccc23)c1             %         70
 4  O=C(NCc1cccc(C(F)(F)F)c1)c1csc(-c2n[nH]c3ncccc23)c1             %         60
 5  O=C(Nc1ccccc1)c1ccc(-c2n[nH]c3ccccc23)s1             %         25
 6  O=S(=O)(Cc1c(Cl)cccc1Cl)c1c[nH]c(-c2n[nH]c3ncccc23)c1             %         18
 7  O=C(NCc1cccc(Br)c1)c1c[nH]c(-c2n[nH]c3ncccc23)c1             %         60
 8  O=C(Nc1ccccc1)c1coc(-c2c[nH]c3ccccc23)c1             %         50
 9  COc1ccc(CNC(=O)c2c[nH]c(-c3n[nH]c4ncccc34)c2)cc1             %         25
10  O=C(NCc1c(F)cccc1Cl)c1c[nH]c(-c2cnc3cnccn23)c1             %         20
11  Cc1ccc(NC(=O)c2c[nH]c(-c3n[nH]c4ncccc34)c2)cc1             %         15
12  O=C(NCc1c(F)cccc1Cl)c1coc(-c2c[nH]c3ncccc23)c1             %         52
13  O=C(NCc1c(F)cccc1Cl)c1ccc(-c2nnc3ccccn23)s1             %         20
14  O=C(NCc1c(F)cccc1Cl)c1csc(-c2n[nH]c3ccccc23)c1             %         52
15  O=C(NCc1c(F)cccc1Cl)c1csc(-c2c[nH]c3ccccc23)c1             %         10
16  COc1cccc(CNC(=O)c2c[nH]c(-c3n[nH]c4ncccc34)c2)c1             %         50
17  O=C(NCc1c(F)cccc1Cl)c1ccc(-c2c[nH]c3ccccc23)cc1             %         30
18  O=C(NCc1c(F)cccc1Cl)c1cccc(-c2cnc3cccnn23)c1             %          2
19  O=C(Nc1ccccc1)c1csc(-c2n[nH]c3ncccc23)c1             %          9
20  O=C(NCc1c(F)cccc1Cl)c1c[nH]c(-c2cnc3cccnn23)c1             %         20
21  O=C(NCc1c(F)cccc1Cl)c1ccc(-c2cnc3ccccn23)cc1             %         40
22  O=C(Nc1ccccc1)c1csc(-c2c[nH]c3ccccc23)c1             %         50
